experimentDescription: Biodistribution in B16/F1 melanoma-bearing C57 mice
Format: in vivo
runParameters: female, C57, mouse, liver, iv, total radioactivity, 2 h post-injection, L-lysine co-injection; read-out: Liver uptake

compound | readoutUnit | tissue uptake at 2 h
CCCC[C@H](NC(=O)CN1CCN(CC(=O)O)CCN(CC(=O)O)CCN(CC(=O)O)CC1)C(=O)N[C@H]1CC(=O)NCCCC[C@@H](C(N)=O)NC(=O)[C@H](Cc2c[nH]c3ccccc23)NC(=O)[C@H](CCCNC(=N)N)NC(=O)[C@@H](Cc2ccccc2)NC(=O)[C@H](Cc2c[nH]cn2)NC1=O [^111In-DOTA-Nle-CycMSHhex, metal not drawn] | %ID/g | 1.42

* * *

experimentDescription: Biodistribution in B16/F1 melanoma-bearing C57 mice
Type: in vivo
runParameters: female, C57, mouse, bone, iv, total radioactivity, 2 h post-injection, L-lysine co-injection; read-out: Bone uptake

compound | tissue uptake at 2 h, %ID/g
CCCC[C@H](NC(=O)CN1CCN(CC(=O)O)CCN(CC(=O)O)CCN(CC(=O)O)CC1)C(=O)N[C@H]1CC(=O)NCCCC[C@@H](C(N)=O)NC(=O)[C@H](Cc2c[nH]c3ccccc23)NC(=O)[C@H](CCCNC(=N)N)NC(=O)[C@@H](Cc2ccccc2)NC(=O)[C@H](Cc2c[nH]cn2)NC1=O [^111In-DOTA-Nle-CycMSHhex, metal not drawn] | 0.55

* * *

experimentDescription: Biodistribution in B16/F1 melanoma-bearing C57 mice
Format: in vivo
runParameters: female, C57, mouse, intestines, iv, 0.037 MBq, total radioactivity, 24 h post-injection; read-out: Intestines, percent injected dose

compound | tissue uptake dose at 24 h (%ID)
CCCC[C@H](NC(=O)CN1CCN(CC(=O)O)CCN(CC(=O)O)CCN(CC(=O)O)CC1)C(=O)N[C@H]1CC(=O)NCCCC[C@@H](C(N)=O)NC(=O)[C@H](Cc2c[nH]c3ccccc23)NC(=O)[C@H](CCCNC(=N)N)NC(=O)[C@@H](Cc2ccccc2)NC(=O)[C@H](Cc2c[nH]cn2)NC1=O [^111In-DOTA-Nle-CycMSHhex, metal not drawn] | 1.41

* * *

experimentDescription: Biodistribution in B16/F1 melanoma-bearing C57 mice
Assay type: in vivo
runParameters: female, C57, mouse, intestines, iv, total radioactivity, 2 h post-injection, L-lysine co-injection; read-out: Intestines, percent injected dose

compound | tissue uptake dose at 2 h
CCCC[C@H](NC(=O)CN1CCN(CC(=O)O)CCN(CC(=O)O)CCN(CC(=O)O)CC1)C(=O)N[C@H]1CC(=O)NCCCC[C@@H](C(N)=O)NC(=O)[C@H](Cc2c[nH]c3ccccc23)NC(=O)[C@H](CCCNC(=N)N)NC(=O)[C@@H](Cc2ccccc2)NC(=O)[C@H](Cc2c[nH]cn2)NC1=O [^111In-DOTA-Nle-CycMSHhex, metal not drawn] | 1.85 %ID

* * *

experimentDescription: Biodistribution in B16/F1 melanoma-bearing C57 mice
Format: in vivo
runParameters: female, C57, mouse, bone, iv, 0.037 MBq, total radioactivity, 2 h post-injection; read-out: Bone uptake
measuredMetric: tissue uptake at 2 h (%ID/g)

compound | measuredMetric | result
CCCC[C@H](NC(=O)CN1CCN(CC(=O)O)CCN(CC(=O)O)CCN(CC(=O)O)CC1)C(=O)N[C@H]1CC(=O)NCCCC[C@@H](C(N)=O)NC(=O)[C@H](Cc2c[nH]c3ccccc23)NC(=O)[C@H](CCCNC(=N)N)NC(=O)[C@@H](Cc2ccccc2)NC(=O)[C@H](Cc2c[nH]cn2)NC1=O [^111In-DOTA-Nle-CycMSHhex, metal not drawn] | tissue uptake at 2 h | 0.18

* * *

experimentDescription: Biodistribution in B16/F1 melanoma-bearing C57 mice
Format: in vivo
runParameters: female, C57, mouse, heart, iv, 0.037 MBq, total radioactivity, 4 h post-injection; read-out: Heart uptake
measuredMetric: tissue uptake at 4 h

compound | result
CCCC[C@H](NC(=O)CN1CCN(CC(=O)O)CCN(CC(=O)O)CCN(CC(=O)O)CC1)C(=O)N[C@H]1CC(=O)NCCCC[C@@H](C(N)=O)NC(=O)[C@H](Cc2c[nH]c3ccccc23)NC(=O)[C@H](CCCNC(=N)N)NC(=O)[C@@H](Cc2ccccc2)NC(=O)[C@H](Cc2c[nH]cn2)NC1=O [^111In-DOTA-Nle-CycMSHhex, metal not drawn] | 0.12 %ID/g

* * *

experimentDescription: Biodistribution in B16/F1 melanoma-bearing C57 mice
Format: in vivo
runParameters: female, C57, mouse, liver, iv, total radioactivity, 2 h post-injection, NDP blockade; read-out: Liver uptake

compound | tissue uptake at 2 h, %ID/g
CCCC[C@H](NC(=O)CN1CCN(CC(=O)O)CCN(CC(=O)O)CCN(CC(=O)O)CC1)C(=O)N[C@H]1CC(=O)NCCCC[C@@H](C(N)=O)NC(=O)[C@H](Cc2c[nH]c3ccccc23)NC(=O)[C@H](CCCNC(=N)N)NC(=O)[C@@H](Cc2ccccc2)NC(=O)[C@H](Cc2c[nH]cn2)NC1=O [^111In-DOTA-Nle-CycMSHhex, metal not drawn] | 1.46

* * *

experimentDescription: Biodistribution in B16/F1 melanoma-bearing C57 mice
Format: in vivo
runParameters: female, C57, mouse, skin, iv, 0.037 MBq, total radioactivity, 2 h post-injection; read-out: Skin uptake
measuredMetric: tissue uptake at 2 h (%ID/g)

compound | readoutUnit | result
CCCC[C@H](NC(=O)CN1CCN(CC(=O)O)CCN(CC(=O)O)CCN(CC(=O)O)CC1)C(=O)N[C@H]1CC(=O)NCCCC[C@@H](C(N)=O)NC(=O)[C@H](Cc2c[nH]c3ccccc23)NC(=O)[C@H](CCCNC(=N)N)NC(=O)[C@@H](Cc2ccccc2)NC(=O)[C@H](Cc2c[nH]cn2)NC1=O [^111In-DOTA-Nle-CycMSHhex, metal not drawn] | %ID/g | 0.66

* * *

experimentDescription: Biodistribution in B16/F1 melanoma-bearing C57 mice
Type: in vivo
runParameters: female, C57, mouse, skin, iv, 0.037 MBq, total radioactivity, 24 h post-injection; read-out: Skin uptake

compound | readoutUnit | tissue uptake at 24 h
CCCC[C@H](NC(=O)CN1CCN(CC(=O)O)CCN(CC(=O)O)CCN(CC(=O)O)CC1)C(=O)N[C@H]1CC(=O)NCCCC[C@@H](C(N)=O)NC(=O)[C@H](Cc2c[nH]c3ccccc23)NC(=O)[C@H](CCCNC(=N)N)NC(=O)[C@@H](Cc2ccccc2)NC(=O)[C@H](Cc2c[nH]cn2)NC1=O [^111In-DOTA-Nle-CycMSHhex, metal not drawn] | %ID/g | 0.64

* * *

experimentDescription: Biodistribution in B16/F1 melanoma-bearing C57 mice
Type: in vivo
runParameters: female, C57, mouse, heart, iv, total radioactivity, 2 h post-injection, L-lysine co-injection; read-out: Heart uptake

compound | tissue uptake at 2 h
CCCC[C@H](NC(=O)CN1CCN(CC(=O)O)CCN(CC(=O)O)CCN(CC(=O)O)CC1)C(=O)N[C@H]1CC(=O)NCCCC[C@@H](C(N)=O)NC(=O)[C@H](Cc2c[nH]c3ccccc23)NC(=O)[C@H](CCCNC(=N)N)NC(=O)[C@@H](Cc2ccccc2)NC(=O)[C@H](Cc2c[nH]cn2)NC1=O [^111In-DOTA-Nle-CycMSHhex, metal not drawn] | 0.37 %ID/g

* * *

experimentDescription: Biodistribution in B16/F1 melanoma-bearing C57 mice
Type: in vivo
runParameters: female, C57, mouse, heart, iv, 0.037 MBq, total radioactivity, 2 h post-injection; read-out: Heart uptake

compound | tissue uptake at 2 h (%ID/g)
CCCC[C@H](NC(=O)CN1CCN(CC(=O)O)CCN(CC(=O)O)CCN(CC(=O)O)CC1)C(=O)N[C@H]1CC(=O)NCCCC[C@@H](C(N)=O)NC(=O)[C@H](Cc2c[nH]c3ccccc23)NC(=O)[C@H](CCCNC(=N)N)NC(=O)[C@@H](Cc2ccccc2)NC(=O)[C@H](Cc2c[nH]cn2)NC1=O [^111In-DOTA-Nle-CycMSHhex, metal not drawn] | 0.16

* * *

experimentDescription: Biodistribution in B16/F1 melanoma-bearing C57 mice
Assay type: in vivo
runParameters: female, C57, mouse, heart, iv, total radioactivity, 2 h post-injection, NDP blockade; read-out: Heart uptake

compound | tissue uptake at 2 h [%ID/g]
CCCC[C@H](NC(=O)CN1CCN(CC(=O)O)CCN(CC(=O)O)CCN(CC(=O)O)CC1)C(=O)N[C@H]1CC(=O)NCCCC[C@@H](C(N)=O)NC(=O)[C@H](Cc2c[nH]c3ccccc23)NC(=O)[C@H](CCCNC(=N)N)NC(=O)[C@@H](Cc2ccccc2)NC(=O)[C@H](Cc2c[nH]cn2)NC1=O [^111In-DOTA-Nle-CycMSHhex, metal not drawn] | 0.06
